Where do the numbers come from? From ChEMBL document CHEMBL1201862.

tested on: LOX IMVI; assay: NCI tumour cell line growth inhibition, 48 h
The source made the active and inactive calls. Rule as the data show it: active = GI50 up to about 1.1 µM and inactive = higher. *1 amine or outer side, *2 acyl side, *3 side chain or, on linkers, in order; H or OH if unused. Where a SMILES comes first, the peptide text is derived from it. Bridges are numbered along the chain shown (N, C = ends). Roman numbers before positions name the chains, in order. [ ]: non-standard residue; d: D form. Actinocin(9to1) = Cc1c2oc3c(C)ccc(C(=O)[*:1])c3nc-2c(C(=O)[*:2])c(N)c1=O; Hyp = O=C(O)[CH]1C[CH](O)CN1; NMeV = CN[CH](C(=O)O)C(C)C; Sar = CNCC(=O)O
Outcomes: active, inactive

- COMPOUND: "C=CCN1COc2c(cc3c4c(cccc24)C(=O)O3)C1"
  TARGET OR TEST SYSTEM: "LOX IMVI"
  ASSIGNED CLASS: "inactive"
- COMPOUND: "COc1cc2nc3n(c2cc1OC)C(O)c1c(Cl)nc(SC)nc1S3 (stereo not given)"
  TARGET OR TEST SYSTEM: "LOX IMVI"
  ASSIGNED CLASS: "inactive"
- COMPOUND: "COS(C)(=O)=O [METHANESULFONIC ACID METHYL ESTER]"
  TARGET OR TEST SYSTEM: "LOX IMVI"
  ASSIGNED CLASS: "inactive"
- COMPOUND: "CCCCCCCCCCCCCCCC[N+](C)(C)CCl"
  TARGET OR TEST SYSTEM: "LOX IMVI"
  ASSIGNED CLASS: "inactive"
- COMPOUND: "O=c1n(CC2CS2)c2ccccc2n1CC1CS1 (stereo not given)"
  TARGET OR TEST SYSTEM: "LOX IMVI"
  ASSIGNED CLASS: "inactive"
- COMPOUND: "Cc1ccc(C2=C(Cl)C(=O)C(c3ccc(C)cc3)=C(Cl)C2=O)cc1"
  TARGET OR TEST SYSTEM: "LOX IMVI"
  ASSIGNED CLASS: "inactive"
- COMPOUND: "Cc1c2oc3c(C)ccc(C(=O)NC4C(=O)NC(C(C)C)C(=O)N5CC(O)CC5C(=O)N(C)CC(=O)N(C)C(C(C)C)C(=O)OC4C)c3nc-2c(C(=O)NC2C(=O)NC(C(C)C)C(=O)N3CC(O)CC3C(=O)N(C)CC(=O)N(C)C(C(C)C)C(=O)OC2C)c(N)c1=O (stereo not given) (I: TV[Hyp][Sar][NMeV] / II: TV[Hyp][Sar][NMeV]; ester I:1-I:C, II:1-II:C; linker I:N-II:N via Actinocin(9to1); configuration not given here)"
  TARGET OR TEST SYSTEM: "LOX IMVI"
  ASSIGNED CLASS: "active"
- COMPOUND: "C=CCc1cc(-c2cc(CC=C)c(O)c(CNCCCl)c2)cc(CNCCCl)c1O"
  TARGET OR TEST SYSTEM: "LOX IMVI"
  ASSIGNED CLASS: "inactive"
- COMPOUND: "CC(=O)O/N=C1\\C=Cc2c(no[n+]2[O-])C1=O"
  TARGET OR TEST SYSTEM: "LOX IMVI"
  ASSIGNED CLASS: "inactive"
- COMPOUND: "COc1ccc(OC2OC(CO)C(O)C(O)C2O)cc1 (stereo not given)"
  TARGET OR TEST SYSTEM: "LOX IMVI"
  ASSIGNED CLASS: "inactive"
- COMPOUND: "C/C(=N\\N=C(\\N)OB(F)F)c1ccccn1"
  TARGET OR TEST SYSTEM: "LOX IMVI"
  ASSIGNED CLASS: "inactive"
- COMPOUND: "O=C(/C=C/c1cccs1)c1ccsc1"
  TARGET OR TEST SYSTEM: "LOX IMVI"
  ASSIGNED CLASS: "inactive"
- COMPOUND: "CC1=NN(c2nc(N)nc(-c3ccccc3S(N)(=O)=O)n2)C(C)(C)C1"
  TARGET OR TEST SYSTEM: "LOX IMVI"
  ASSIGNED CLASS: "inactive"
- COMPOUND: "CCCC(=O)N[C@H]1C2C3CC4C5CC(C42)C1(C)C53 (stereo not given in full)"
  TARGET OR TEST SYSTEM: "LOX IMVI"
  ASSIGNED CLASS: "inactive"
- COMPOUND: "Cc1[nH]c(=O)c2oc3cc4ccccc4cc3c2c1C(=O)O"
  TARGET OR TEST SYSTEM: "LOX IMVI"
  ASSIGNED CLASS: "inactive"
- COMPOUND: "CCOC(=O)N1CCN(P(=O)(Nc2ccc3[nH]c(NC(=O)OC)nc3c2)Oc2ccccc2)CC1 (stereo not given)"
  TARGET OR TEST SYSTEM: "LOX IMVI"
  ASSIGNED CLASS: "inactive"
- COMPOUND: "CO[C@@H](C(=O)OC1C=CC2(CC1)C(=O)N(C)c1ccccc12)c1ccccc1 (stereo not given in full)"
  TARGET OR TEST SYSTEM: "LOX IMVI"
  ASSIGNED CLASS: "inactive"
- COMPOUND: "CC(C)=CCC/C(C)=C/CCC1(C)C2COC(=O)C21 (stereo not given)"
  TARGET OR TEST SYSTEM: "LOX IMVI"
  ASSIGNED CLASS: "inactive"
- COMPOUND: "COc1ccc(/C(Cl)=C(\\C=O)c2ccc(F)cc2)cc1OC"
  TARGET OR TEST SYSTEM: "LOX IMVI"
  ASSIGNED CLASS: "inactive"
- COMPOUND: "Fc1cccc(Cl)c1/C=N\\N=C1c2ccccc2-c2ccccc21"
  TARGET OR TEST SYSTEM: "LOX IMVI"
  ASSIGNED CLASS: "inactive"
- COMPOUND: "CN1Cc2cc3cc4c(cc3nc2N(C)C1)OCCO4"
  TARGET OR TEST SYSTEM: "LOX IMVI"
  ASSIGNED CLASS: "inactive"
- COMPOUND: "CC(=O)O[C@H]1C[C@H]2[C@@H]([C@H](OC(C)=O)C[C@@H]3CC4(CC[C@@]32C)OOC2(CCCCC2)OO4)[C@@H]2CC[C@H]([C@H](C)CCC(=O)O)[C@@]12C"
  TARGET OR TEST SYSTEM: "LOX IMVI"
  ASSIGNED CLASS: "inactive"
- COMPOUND: "COC1OC2COC(c3ccccc3)OC2C(OC(=S)c2ccccc2)C1O (stereo not given)"
  TARGET OR TEST SYSTEM: "LOX IMVI"
  ASSIGNED CLASS: "inactive"
- COMPOUND: "O=C1CCCC/C1=C(\\Br)I"
  TARGET OR TEST SYSTEM: "LOX IMVI"
  ASSIGNED CLASS: "inactive"
- COMPOUND: "CCOC(=O)c1oc2ccc(OC)c3c2c1CCC3"
  TARGET OR TEST SYSTEM: "LOX IMVI"
  ASSIGNED CLASS: "inactive"
- COMPOUND: "O=[N+]([O-])c1ccc(NC(=S)Nc2ccccn2)cc1"
  TARGET OR TEST SYSTEM: "LOX IMVI"
  ASSIGNED CLASS: "inactive"
- COMPOUND: "COC(=O)C1C(=O)NC2(C)CC1c1ccccc1O2 (stereo not given)"
  TARGET OR TEST SYSTEM: "LOX IMVI"
  ASSIGNED CLASS: "inactive"
- COMPOUND: "O=C1NC(Cc2ccc(O)cc2)C(=O)N2CCCC12 (stereo not given)"
  TARGET OR TEST SYSTEM: "LOX IMVI"
  ASSIGNED CLASS: "inactive"
- COMPOUND: "CC(=O)OCC1OC(n2c(=O)[nH]c(=O)c3sccc32)C(Br)C1OC(C)=O (stereo not given)"
  TARGET OR TEST SYSTEM: "LOX IMVI"
  ASSIGNED CLASS: "inactive"
- COMPOUND: "COc1cc(OC)c(OC)cc1/C=C/c1ccccn1"
  TARGET OR TEST SYSTEM: "LOX IMVI"
  ASSIGNED CLASS: "inactive"
- COMPOUND: "COC1=CC(=O)[C@H]2[C@H](C)C(c3ccccc3)[C@@]2(C)C1=O (stereo not given in full)"
  TARGET OR TEST SYSTEM: "LOX IMVI"
  ASSIGNED CLASS: "inactive"
- COMPOUND: "N=C/N=C/C(=S)O[C@@H]1C(=O)N2CCC[C@@]23CCCC[C@@H]13"
  TARGET OR TEST SYSTEM: "LOX IMVI"
  ASSIGNED CLASS: "inactive"
- COMPOUND: "COc1ccc2c(c1)CCC1C3(CCCC21C)OCCO3 (stereo not given)"
  TARGET OR TEST SYSTEM: "LOX IMVI"
  ASSIGNED CLASS: "inactive"
- COMPOUND: "CCc1cccc(C(C)C)c1NC(=O)C(=O)C(C(=O)C(=O)OC)c1nc2ccccc2nc1O (stereo not given)"
  TARGET OR TEST SYSTEM: "LOX IMVI"
  ASSIGNED CLASS: "inactive"
- COMPOUND: "Oc1ccc(Cc2nccc3cc(O)c(O)cc23)cc1O"
  TARGET OR TEST SYSTEM: "LOX IMVI"
  ASSIGNED CLASS: "inactive"
